# Target or test system: T1, cynomolgus IL-18BP (cynomolgus monkey)
# T1 construct: also called cyno IL-18BP; cyIL-18BP
# T1 chain: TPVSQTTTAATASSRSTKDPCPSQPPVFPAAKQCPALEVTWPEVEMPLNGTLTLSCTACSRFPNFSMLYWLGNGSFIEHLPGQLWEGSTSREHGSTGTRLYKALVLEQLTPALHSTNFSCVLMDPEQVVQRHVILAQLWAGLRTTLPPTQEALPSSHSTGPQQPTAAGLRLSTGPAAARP
# Method notes: BLI, apparent KD
Property: log10 Kd (log10 of the value in nM)
Note: values are log10 of Kd expressed in nM.

Q: Which value of log10 Kd has been reported for SA301a HC-V100aD (antibody, name in Kabat numbering, V domains shown, IgG1 kappa) VH: QVQLQESGPGLVKPSQTLSLTCTVSGYSITSDYNSHWIRQPPGKGLEWIGYIHYSGSTNYNPSLKSRVTISRDTSKNQFSLKLSSVTAADTAVYYCARNYGSIYDNYFDYWGQGTLVTVSS VL: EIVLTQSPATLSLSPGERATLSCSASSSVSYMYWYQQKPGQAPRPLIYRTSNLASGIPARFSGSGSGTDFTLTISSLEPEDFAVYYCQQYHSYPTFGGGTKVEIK in the records?
Ans: -0.44

Q: # lookup: log10 Kd of SA301a HC-Y100G (antibody, V domains shown) VH: QVQLQESGPGLVKPSQTLSLTCTVSGYSITSDYNSHWIRQPPGKGLEWIGYIHYSGSTNYNPSLKSRVTISRDTSKNQFSLKLSSVTAADTAVYYCARNYGSIGVNYFDYWGQGTLVTVSS VL: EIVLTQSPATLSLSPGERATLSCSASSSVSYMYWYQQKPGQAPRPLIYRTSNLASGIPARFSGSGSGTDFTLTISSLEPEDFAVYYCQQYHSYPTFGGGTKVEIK
Ans: -0.32

Q: What value of measured log10 Kd is listed for SA301a HC-Y100P (antibody, V domains shown) VH: QVQLQESGPGLVKPSQTLSLTCTVSGYSITSDYNSHWIRQPPGKGLEWIGYIHYSGSTNYNPSLKSRVTISRDTSKNQFSLKLSSVTAADTAVYYCARNYGSIPVNYFDYWGQGTLVTVSS VL: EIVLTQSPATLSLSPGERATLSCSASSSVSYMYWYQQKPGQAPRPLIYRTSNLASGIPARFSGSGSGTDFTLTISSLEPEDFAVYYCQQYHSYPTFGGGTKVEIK ?
Ans: 0.38

Q: Item SA301a HC-V100aP (antibody, name in Kabat numbering, V domains shown, IgG1 kappa) VH: QVQLQESGPGLVKPSQTLSLTCTVSGYSITSDYNSHWIRQPPGKGLEWIGYIHYSGSTNYNPSLKSRVTISRDTSKNQFSLKLSSVTAADTAVYYCARNYGSIYPNYFDYWGQGTLVTVSS VL: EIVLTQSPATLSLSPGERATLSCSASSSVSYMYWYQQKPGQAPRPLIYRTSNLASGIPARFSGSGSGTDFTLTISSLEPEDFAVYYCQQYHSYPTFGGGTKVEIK has what recorded log10 Kd?
Ans: -0.82

Q: Given the entry SA301a HC-I99A (antibody, name in Kabat numbering, V domains shown, IgG1 kappa) VH: QVQLQESGPGLVKPSQTLSLTCTVSGYSITSDYNSHWIRQPPGKGLEWIGYIHYSGSTNYNPSLKSRVTISRDTSKNQFSLKLSSVTAADTAVYYCARNYGSAYVNYFDYWGQGTLVTVSS VL: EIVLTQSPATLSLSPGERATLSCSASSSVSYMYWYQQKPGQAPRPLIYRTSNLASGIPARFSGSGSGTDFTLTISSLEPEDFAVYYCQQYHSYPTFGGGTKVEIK , report its measured log10 Kd.
Ans: -0.21

Q: I have this binder here, SA301a HC-I99M (antibody, name in Kabat numbering, V domains shown, IgG1 kappa) VH: QVQLQESGPGLVKPSQTLSLTCTVSGYSITSDYNSHWIRQPPGKGLEWIGYIHYSGSTNYNPSLKSRVTISRDTSKNQFSLKLSSVTAADTAVYYCARNYGSMYVNYFDYWGQGTLVTVSS VL: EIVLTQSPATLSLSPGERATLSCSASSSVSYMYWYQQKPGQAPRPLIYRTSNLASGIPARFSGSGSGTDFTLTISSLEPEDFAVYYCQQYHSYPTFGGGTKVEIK , and I need its recorded log10 Kd.
Ans: -0.43

Q: // query log10 Kd value for entry SA301a HC-I99N (antibody, name in Kabat numbering, V domains shown, IgG1 kappa) VH: QVQLQESGPGLVKPSQTLSLTCTVSGYSITSDYNSHWIRQPPGKGLEWIGYIHYSGSTNYNPSLKSRVTISRDTSKNQFSLKLSSVTAADTAVYYCARNYGSNYVNYFDYWGQGTLVTVSS VL: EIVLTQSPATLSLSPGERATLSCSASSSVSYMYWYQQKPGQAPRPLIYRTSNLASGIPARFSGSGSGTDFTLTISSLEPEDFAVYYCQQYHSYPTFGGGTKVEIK
Ans: -0.18

Q: Using the record for SA301a HC-I99Q (antibody, name in Kabat numbering, V domains shown, IgG1 kappa) VH: QVQLQESGPGLVKPSQTLSLTCTVSGYSITSDYNSHWIRQPPGKGLEWIGYIHYSGSTNYNPSLKSRVTISRDTSKNQFSLKLSSVTAADTAVYYCARNYGSQYVNYFDYWGQGTLVTVSS VL: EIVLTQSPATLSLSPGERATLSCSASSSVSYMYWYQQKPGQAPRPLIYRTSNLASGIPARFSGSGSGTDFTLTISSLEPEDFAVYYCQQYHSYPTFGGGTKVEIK , report its log10 Kd.
Ans: -0.36

Q: So what does the record say about log10 Kd for SA301a HC-Y100K (antibody, V domains shown) VH: QVQLQESGPGLVKPSQTLSLTCTVSGYSITSDYNSHWIRQPPGKGLEWIGYIHYSGSTNYNPSLKSRVTISRDTSKNQFSLKLSSVTAADTAVYYCARNYGSIKVNYFDYWGQGTLVTVSS VL: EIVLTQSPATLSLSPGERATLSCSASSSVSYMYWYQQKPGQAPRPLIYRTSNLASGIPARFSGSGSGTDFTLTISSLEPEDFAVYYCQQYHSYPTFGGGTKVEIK ?
Ans: 0.34

Q: Entry SA301a HC-I99L (antibody, name in Kabat numbering, V domains shown, IgG1 kappa) VH: QVQLQESGPGLVKPSQTLSLTCTVSGYSITSDYNSHWIRQPPGKGLEWIGYIHYSGSTNYNPSLKSRVTISRDTSKNQFSLKLSSVTAADTAVYYCARNYGSLYVNYFDYWGQGTLVTVSS VL: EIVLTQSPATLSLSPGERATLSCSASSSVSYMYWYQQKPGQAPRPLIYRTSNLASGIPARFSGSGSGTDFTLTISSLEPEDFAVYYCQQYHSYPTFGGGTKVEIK : reported log10 Kd = ?
Ans: -0.05
